# Measured on: human A3 AR (Homo sapiens)
# Construct: expressed in transfected cells; host or cells: CHO cells
# Sequence (P0DMS8 1-318): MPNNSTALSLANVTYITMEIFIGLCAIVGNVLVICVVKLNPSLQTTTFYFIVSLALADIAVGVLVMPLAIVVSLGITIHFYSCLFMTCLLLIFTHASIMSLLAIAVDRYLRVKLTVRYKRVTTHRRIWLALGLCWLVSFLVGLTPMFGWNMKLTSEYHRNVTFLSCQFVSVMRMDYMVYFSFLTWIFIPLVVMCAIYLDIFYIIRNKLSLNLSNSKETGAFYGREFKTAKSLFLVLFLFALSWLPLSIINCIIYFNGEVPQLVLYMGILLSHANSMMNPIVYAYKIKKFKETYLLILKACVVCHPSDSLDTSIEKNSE
# Test details: Radioligand binding assay at human A3 AR vs. [^3H]PSB-11
# Conditions used: CHO cell membranes, n = 2 (n = 3 where marked a), read-out: Ki ± SEM, A3 vs. [^3H]PSB-11
Test readout: Ki (µM)
// return numeric value only (unit: µM, not printed)

1. CCn1c(=O)c2c(nc3n2CCN(Cc2ccccc2C(F)(F)F)C3)n(CC)c1=O [Compound 15f]    4.06
2. CCn1c(=O)c2c(nc3n2CCN(Cc2cc(Cl)cc(Cl)c2)C3)n(CC)c1=O [Compound 15m]    4.72

[ask] Field request: Ki | item: Cn1c(=O)[nH]c(=O)c2c1nc1n2CCN(Cc2ccccc2Br)C1 [Compound 13a]
[reply] 14.7

All figures here come from paper PMC6028563.
